targetOrTestSystem: Tyrosyl-tRNA synthetase, putative (Trypanosoma cruzi (strain CL Brener))
assayExplanation: Trypanosoma cruzi tyrosyl tRNA synthetase (TcYRS) SOP
Format: functional
Design: scale not given: direction of the effect not stated beside the values
testSettings: 30 µM
measuredEndpoint: Percent Effect (%)
Number only, in %; omit the unit.

Worked cases, answers included:
CSc1ccc(CNC(c2ccccc2)c2nccn2C)cc1 (centres undefined)	30.5
COCC(=O)N1CCC(c2nc3ccc(N4CCCC4)cn3n2)CC1	11.1
Cc1ccsc1CNC(=O)NC1CCCc2c1cnn2CCO (centres undefined)	18.5
CCCc1nc(CN2CCCC(Cn3cncn3)C2)no1 (centres undefined)	15.2
CNC(=O)c1cccc(NC(=O)Cn2nc(-c3cccs3)oc2=O)c1	13.4

Lab note: `NC(=O)CN1CC2(CCC1=O)CCN(Cc1cc(F)ccc1Cl)CC2` gave Percent Effect of 18.5

Lab note: CSCCCN1CCCC1c1noc(C)n1 (centres undefined) gave Percent Effect of 21.9

Lab note: `CC(C)(C)NC(=O)CN1CCN(C(=O)Nc2ccc(F)cc2F)CC1` gave Percent Effect of 6.17

Lab note: `Cc1ccc(S(=O)(=O)NC2CC2)cc1C` gave Percent Effect of 0

Lab note: `COCc1noc(C2(c3ccc(OC)cc3)CCOCC2)n1` gave Percent Effect of 17.1

====

Organism: Homo sapiens
assayExplanation: To identify inhibition of the IFN signalling (Jak-Stat) pathway via expression of an eGFP reporter gene under the control of an IFN-stimulated response element (ISRE) containing MxA promoter.
Type: functional
Set-up: scale not given: direction of the effect not stated beside the values
testSettings: 30 µM
measuredEndpoint: Percent Effect (%)
Number only, in %; omit the unit.

Worked cases, answers included:
COc1cc(C2CC(=O)Oc3cc(C)[nH]c(=O)c32)ccc1OC(F)F (stereo unspecified)	7.6
Cc1ccccc1C1CCCN1C(=O)CN1CC2(CCNCC2)OC1=O (stereo unspecified)	-1.19
CC(C)(C)c1n[nH]c(C2CN(C(=O)c3cc(C4CC4)on3)CCO2)n1 (stereo unspecified)	0.97

Lab note: COCC1CC2(CCN(C(=O)c3cccc(C)c3)CC2)CO1 (stereo unspecified) gave Percent Effect of -8.87

Lab note: Cc1nn(C)c(N2CCOCC2)c1CNC1CCc2ccccc2C1 (stereo unspecified) gave Percent Effect of 8.26

Lab note: `CN(Cc1cccc(Cl)c1)S(=O)(=O)N1CCOCC1` gave Percent Effect of -6.09

Lab note: `COCc1n[nH]/c(=N/C(=O)COc2cnc(C)cc2O)s1` gave Percent Effect of -1.08

Lab note: Cc1csc(N2CCN(CC(=O)Nc3nncs3)CC2C)n1 (stereo unspecified) gave Percent Effect of 9.1

====

targetOrTestSystem: Proteasome subunit beta (Trypanosoma cruzi) (UniProt O96673)
Sequence (O96673 as listed by the source): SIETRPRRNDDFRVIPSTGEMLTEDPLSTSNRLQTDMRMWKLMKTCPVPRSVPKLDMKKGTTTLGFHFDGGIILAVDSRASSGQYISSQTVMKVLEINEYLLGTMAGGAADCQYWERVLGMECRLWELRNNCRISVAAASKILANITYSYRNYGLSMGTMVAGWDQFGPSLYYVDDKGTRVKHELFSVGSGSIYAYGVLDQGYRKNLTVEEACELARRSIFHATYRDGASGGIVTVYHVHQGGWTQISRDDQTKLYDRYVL
assayExplanation: Trypanosoma cruzi proteasome chymotrypsin-like activity (TcProtChymo) assay. Further: in the data most compounds retested in dose-response had high values.
Format: functional
Design: scale not given: direction of the effect not stated beside the values
testSettings: 9.37 µM
Items are presented alongside their recorded Percent Effect.
Number only, in %; omit the unit.

COc1c(CNCc2ccc(N(C)C)nc2)c(C(C)C)nn1C	6.01
Cn1ccnc1CN1CCCCC1Cn1cccn1 (stereo not drawn)	-1.03
c1ccc(CN2CC[C@@H]3O[C@H](COCc4ccncc4)CC[C@@H]32)nc1	9.07
CCC1CCCCN1C(=O)c1ccc2[nH]nnc2c1 (stereo not drawn)	19.5
Cc1ccc(S(=O)(=O)N2CSCC2C(=O)N(C)C2CC2)cc1Cl (stereo not drawn)	7.47
OCc1ccc(Cl)c(NCc2cccnc2)c1	2.01

Lab note: `Cc1noc(CN(Cc2ccc3c(c2)OCO3)Cc2ccc(C)o2)n1` gave Percent Effect of 13.3

Lab note: Cc1cnn(C2CCCN(C(=O)C3=NN(C)C(=O)CC3)C2)c1 (stereo not drawn) gave Percent Effect of 15.7

Lab note: CCc1nc2n(n1)CC(NCc1ncc(-c3ccccc3)o1)CC2 (stereo not drawn) gave Percent Effect of 4.65

Lab note: `CC(C)COCc1cncc2c1CCN(Cc1cnn(C)c1)C2` gave Percent Effect of 4.16

Lab note: Cc1cc(C)c2nc(CN3CCOC(CCO)C3)cc(O)c2c1 (stereo not drawn) gave Percent Effect of 10.3

Lab note: `CCc1nnc2n1CCN(C(=O)c1cc(Br)c[nH]1)C2` gave Percent Effect of 13

Lab note: `CCOC(=O)CCC(=O)N1CCC(Oc2ccc(C(F)(F)F)cn2)CC1` gave Percent Effect of 14.1

====

Species on record: Homo sapiens
assayExplanation: To identify inhibition of the IFN signalling (Jak-Stat) pathway via expression of an eGFP reporter gene under the control of an IFN-stimulated response element (ISRE) containing MxA promoter.
Format: functional
Parameters: scale not given: direction of the effect not stated beside the values
testSettings: 30 µM
measuredEndpoint: Percent Effect (%)
Number only, in %; omit the unit.

Worked cases, answers included:
Cc1nc2ccnn2c(C)c1CCC(=O)N1CCC(C(N)=O)CC1	4.03
CCn1nc(CNC(=O)C2CC(=O)N(C3CCCC3)C2)c2ccccc21 (stereo unspecified)	10.4
c1cnnc(N2CCCC2CNCc2cc[nH]n2)c1 (stereo unspecified)	-3.22
Cc1cnn(CC(C)NCc2nc(-c3cccnc3)no2)c1 (stereo unspecified)	-8.09
Cc1nccn1C1CCCN(C(=O)c2cc(O)nc3ccccc23)C1 (stereo unspecified)	-4.23

Lab note: `Cn1cc(-c2csc(N3CCN(C(=O)OC(C)(C)C)CC3)n2)cn1` gave Percent Effect of 57.3

Lab note: `CC(=O)N1CCC(C(=O)NCCN2CCC(C)CC2)CC1` gave Percent Effect of -2.5

Lab note: `CCN1CC2(CCC1=O)CCN(C(=O)c1ccc(Cl)cc1O)CC2` gave Percent Effect of 19.3

Lab note: `COc1ccc(C(=O)N(C)Cc2nnc3ccccn23)c(OC)c1` gave Percent Effect of -2.12

Lab note: `CNC(=O)c1nc2c(s1)CCN(C(=O)c1cccnc1)CC2` gave Percent Effect of 3.61

Lab note: `C[C@@H]1CN(C(=O)c2ccsc2)C[C@]12CCN(c1ccsc1)C2=O` gave Percent Effect of 5.8

====

Items are presented alongside their recorded Percent Effect.
targetOrTestSystem: Chromo domain-containing protein 1 (Saccharomyces cerevisiae (strain ATCC 204508 / S288c) (Baker's yeast))
assayExplanation: ScCHD-1 Enzyme Inhibition Assay; further: in the data most compounds retested in dose-response had high values
Type: functional
Design: scale not given: direction of the effect not stated beside the values
testSettings: 30 µM
Number only, in %; omit the unit.

COc1ncccc1NC(=O)NCC(O)c1ccc(F)cc1F (configuration not stated)	-13.8

Lab note: `CCN(CC)C(=O)Nc1cc2c(cc1SC)OCCO2` gave Percent Effect of -6.4

Lab note: `CCc1nnc2n1CCN(C(=O)c1ccc3nc(C)c(C)nc3c1)C2` gave Percent Effect of -2.97

Lab note: COCCN1CCC(NCc2cccc(F)c2)C1 (configuration not stated) gave Percent Effect of -9.86

Lab note: `Cc1cc(C(F)(F)F)c2c(C3CCN(S(=O)(=O)N(C)C)CC3)noc2n1` gave Percent Effect of -15.2

Lab note: CC(C)N1CCCC(CCCc2ccccn2)(C(=O)O)C1 (configuration not stated) gave Percent Effect of 4.56

Lab note: Cc1nc(N2CCN(C)CC2)ncc1C(=O)N1CC(C)(C)C(C)(O)C1 (configuration not stated) gave Percent Effect of 103

====

targetOrTestSystem: AMP-activated protein kinase, AMPK (Homo sapiens) (UniProt P54646+O43741+P54619+Q9UGJ0+Q9Y478+Q13131+Q9UGI9)
assayExplanation: AMP-dependent Kinase enzyme assay. An in vitro enzyme assay that detects ADP turnover that is directly proportional to AMPK activity. This uses naive AMPK that is activated during the assay with MK-8722
Type: functional
Design: scale not given: direction of the effect not stated beside the values
testSettings: 30 µM
measuredEndpoint: Percent Effect (%)
Number only, in %; omit the unit.

Worked cases, answers included:
CCOc1ccccc1C(CC(=O)Nc1nc(C)cs1)NC(C)=O (stereo not drawn)	-0.999
Cc1cnn(C2CN(CC(O)c3ccc4c(c3)OCCO4)C2)c1 (stereo not drawn)	-2.25

Lab note: `Nc1nccc(NCc2cc3n(n2)CCCN(C2CCCCC2)C3)n1` gave Percent Effect of -1.77

Lab note: `COC[C@@H]1CC[C@H]2[C@H](CCN2C(=O)c2ccncc2F)O1` gave Percent Effect of -0.0287

Lab note: Cc1cnc(CN(Cc2ccccc2)CC(O)c2cccs2)cn1 (stereo not drawn) gave Percent Effect of -2.24

Lab note: `O=C(NC1=NCCCN1c1ccc(Cl)cc1)c1cccc(Cl)c1` gave Percent Effect of 0.353

Lab note: `CCn1cc(CN2CCCN(C(=O)c3ccn(C)c(=O)c3)CC2)cn1` gave Percent Effect of -9.71

Lab note: CCOCC(O)CN1CCN(C(=O)c2ccnc(N(C)C)c2)CC1 (stereo not drawn) gave Percent Effect of -5.93

Lab note: CC(NC(=O)NCc1cc[nH]n1)c1ccc2c(c1)CCC(=O)N2 (stereo not drawn) gave Percent Effect of -2.39
